Molecular target: T1, human CXCR4-enriched lipoparticles (Homo sapiens, UniProt P61073)
T1 construct: purchased Integral Molecular, Philadelphia Pa; LEV101
T1 sequence (P61073 whole entry): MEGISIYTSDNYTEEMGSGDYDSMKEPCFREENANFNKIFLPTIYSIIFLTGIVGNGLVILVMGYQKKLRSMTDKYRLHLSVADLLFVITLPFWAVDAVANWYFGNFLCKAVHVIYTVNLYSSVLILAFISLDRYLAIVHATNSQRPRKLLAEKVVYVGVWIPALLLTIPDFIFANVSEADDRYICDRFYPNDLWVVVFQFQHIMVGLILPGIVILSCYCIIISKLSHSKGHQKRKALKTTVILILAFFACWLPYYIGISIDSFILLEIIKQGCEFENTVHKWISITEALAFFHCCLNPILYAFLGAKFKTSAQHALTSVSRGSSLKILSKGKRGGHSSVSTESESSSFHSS
Assay: Biosensor affinity measurement of Fabs on CXCR4-enriched lipoparticles
Format: binding
Conditions: Fab; kinetic titration
PROPERTY_NAME: Ka (1/MS)

MOLECULE | PROPERTY_NAME | RESULT
h3G10.1.91 VH/h3G10.2.72 VL: Fab; VH SEQ ID NO:33, VL SEQ ID NO:49 (antibody, V domains shown, Fab) VH: EVQLVESGGGLVQPGGSLRLSCAASGFTFSDYYMSWVRQAPGKGLEWVGFIRHKANFETTEYSTSVKGRFTISRDDSKNSLYLQMNSLKTEDTAVYYCARDLPGFAYWGQGTLVTVSS VL: DIVMTQSPDSLAVSLGERATINCKSSQSLFNSRTRKNYLAWYQQKPGQPPKLLIYWASARESGVPDRFSGSGSGTDFTLTISSLQAEDVAVYYCKQSFRLRTFGGGTKVEIK | Ka (1/MS) | 1.50E+06 1/MS
